# Test system: U251 CNS
Use one of these outcomes when replying: 1 = active, 0 = inactive

{"columns": ["compound", "assayed system", "class"],
 "data": [
  ["COc1cc2c3c(n(CCCNCCCNCCCNCCCN)c(=O)c2cc1OC)-c1cc2c(cc1C3=O)OCO2", "U251 CNS", 0]
]}

Recorded test outcome, item CCN(CC)CCCC(C)Nc1nc(C)cc(Nc2ccc3nc(C)cc(N)c3c2)n1 (centres undefined) 0

* * *

# Tested on: PC-3 prostate
# assay details: NCI tumour cell line growth inhibition, 48 h
result type: TGI

Which TGI reading was recorded for the compound C/C=C1/CN2CCC3(O)c4ccccc4N4C=C(C(=O)OC)C1CC2C43O (stereo not drawn) ? > 100 µM

* * *

Listed next: entries and their corresponding log10 TGI.
# System: SK-MEL-5 melanoma
# assay details: NCI tumour cell line growth inhibition, 48 h
Annotation: log10 of TGI, µM basis.

Some entries whose results are on file:
{"columns": ["molecule", "assayed system", "log10 TGI"],
 "data": [
  ["O/N=C1/C(=C/c2ccc(Oc3ccccc3)cc2)CCCC1C(NO)c1ccc(Oc2ccccc2)cc1 (configuration not stated)", "SK-MEL-5 melanoma", 1.56],
  ["O=C(/C=N/O)Nc1cc(Cl)c(Cl)cc1Cl", "SK-MEL-5 melanoma", 1.52],
  ["CC#C/C(=N\\OC[C@H]1COCCN1)c1ccc2ncnc(Nc3ccc(OCc4cccc(F)c4)c(Cl)c3)c2c1", "SK-MEL-5 melanoma", 0.54],
  ["C/C=C\\C(CC(=O)NCCC1CN(S(=O)(=O)C(F)(F)F)c2ccccc21)CC(=O)OC (configuration not stated)", "SK-MEL-5 melanoma", 1.62],
  ["COC(=O)c1c(O)c([N+](=O)[O-])cc2c1c1c(n2Cc2ccccc2)C(=O)c2ccccc2C1=O", "SK-MEL-5 melanoma", 1.17],
  ["Nc1ccccc1NC(=O)c1ccc(CCCC(=O)Nc2ccc(C3CC3N)cc2)cc1 (configuration not stated)", "SK-MEL-5 melanoma", 0.34]
]}

In the following, a different molecule is considered.
Recorded log10 TGI for "COc1cc(/C=C/c2cc(/C=C/c3ccc(O)c(OC)c3)nc(N)n2)ccc1O" , please? 0.46

* * *

Each entry below carries its reported GI50.
# Tested on: OVCAR-8 ovarian
# assay details: NCI tumour cell line growth inhibition, 48 h

{"columns": ["compound", "assayed system", "GI50"],
 "data": [
  ["S=C(Nc1ccc(Cl)cc1)Nc1ccc(-c2nc3ccccc3o2)cc1", "OVCAR-8 ovarian", "21 µM"],
  ["OC(COc1ccc(F)cc1)Cn1cnc2c(Cl)ncnc21 (stereo not given)", "OVCAR-8 ovarian", "78.6 µM"],
  ["Fc1ccc(-c2ncn(C3CCNCC3)c2-c2ccnc(Oc3ccc(F)c(F)c3)n2)cc1", "OVCAR-8 ovarian", "4.96 µM"],
  ["CCN(CC)CCCC(C)Nc1nc(C)cc(Nc2ccc3nc(C)cc(N)c3c2)n1 (stereo not given)", "OVCAR-8 ovarian", "84.5 µM"],
  ["O=Cc1ccc(-c2ccc(-c3nc4ccccc4o3)cc2)s1", "OVCAR-8 ovarian", "35 µM"]
]}

Please give the measured GI50 for this compound: "COc1ccc(C[C@@H]2NC[C@@H](O)[C@@H]2OC(C)=O)cc1" 3.48 µM

What measured GI50 goes with "COC(=O)Nc1nc2ccc(C(=O)c3ccc(N(C)C4COC4)cc3)cc2[nH]1" ? 0.482 µM

Please give the measured GI50 for this compound: "O=c1c(O)cccc2cc(O)c(O)c(O)c12" 27.3 µM

Fill in the blank: the reported GI50 of "N#CSc1c[nH]c2ccc(/C=C/C(=O)/C=C(/C=C/c3ccc4[nH]cc(SC#N)c4c3)OB(F)F)cc12" is ____. 0.577 µM

Suppose we examine the compound Nc1ccccc1NC(=O)c1ccc(CCCC(=O)Nc2ccc(C3CC3N)cc2)cc1 (stereo not given) ; what GI50 value has been reported? 1.32 µM
